protocol details: Pharmacokinetics of intraperitoneal or intravenous injection in CD1 mice
Assay type: in vivo
conditions: male, CD1, mouse, plasma, ip, 10 mg/kg, IP 10 mg/kg, CD1 mice plasma, 24 h; read-out: Conc. (ng/mL) Mouse 3
Description: The pharmacokinetics of exemplary compounds 103, 107, 100, 101, and 102 was examined for intraperitoneal and intravenous administration. The desired serial concentrations of working solutions were achieved by diluting stock solution (1 mg/mL in DMSO) of analyte with methanol. […] 10 μL of the diluted supernatant was injected into the LC/MS/MS system for quantitative analysis. […]
endpoint label: concentration at 24 h (ng/mL)
Could you give me the number in ng/mL? Just the number is fine.

Cc1ncsc1-c1ccc(CNC(=O)[C@@H]2C[C@@H](O)CN2C(=O)[C@@H](NC(=O)COCCOc2ccc(Nc3ncc(C(F)(F)F)c(NCc4cccc(N(C)S(C)(=O)=O)c4)n3)cc2)C(C)(C)C)cc1 = 1.56

Input line: Which concentration at 24 h value is on record for `Cc1ncsc1-c1ccc(CNC(=O)[C@@H]2C[C@@H](O)CN2C(=O)[C@@H](NC(=O)CCOCCCOc2ccc(Nc3ncc(C(F)(F)F)c(NCc4cccc(N(C)S(C)(=O)=O)c4)n3)cc2)C(C)(C)C)cc1` ?
Output line: 4.5

###

protocol details: Pharmacokinetics of intraperitoneal or intravenous injection in CD1 mice
Format: in vivo
conditions: male, CD1, mouse, plasma, ip, 10 mg/kg, IP 10 mg/kg, CD1 mice plasma, 0.25 h; read-out: Conc. (ng/mL) Mouse 2
concentration at 0.25 h listing for selected molecules.
Report the figure along with its unit, number first.

Some entries whose results are on file:
CN(c1cccc(CNc2nc(Nc3ccc(OCCCOCCC(=O)NCCOc4cccc5c4C(=O)N(C4CCC(=O)NC4=O)C5=O)cc3)ncc2C(F)(F)F)c1)S(C)(=O)=O (centres unmarked) [Compound 107] = 42.6 ng/mL
Cc1ncsc1-c1ccc(CNC(=O)[C@@H]2C[C@@H](O)CN2C(=O)[C@@H](NC(=O)COCCOc2ccc(Nc3ncc(C(F)(F)F)c(NCc4cccc(N(C)S(C)(=O)=O)c4)n3)cc2)C(C)(C)C)cc1 [Compound 100] = 402 ng/mL
Cc1ncsc1-c1ccc(CNC(=O)[C@@H]2C[C@@H](O)CN2C(=O)[C@@H](NC(=O)CCOCCCOc2ccc(Nc3ncc(C(F)(F)F)c(NCc4cccc(N(C)S(C)(=O)=O)c4)n3)cc2)C(C)(C)C)cc1 [Compound 103] = 494 ng/mL
Cc1ncsc1-c1ccc(CNC(=O)[C@@H]2C[C@@H](O)CN2C(=O)[C@@H](NC(=O)COCCCOc2ccc(Nc3ncc(C(F)(F)F)c(NCc4cccc(N(C)S(C)(=O)=O)c4)n3)cc2)C(C)(C)C)cc1 [Compound 101] = 407 ng/mL

Input line: Which concentration at 0.25 h value is on record for Cc1ncsc1-c1ccc(CNC(=O)[C@@H]2C[C@@H](O)CN2C(=O)[C@@H](NC(=O)CCOCCOc2ccc(Nc3ncc(C(F)(F)F)c(NCc4cccc(N(C)S(C)(=O)=O)c4)n3)cc2)C(C)(C)C)cc1 [Compound 102] ?
Output line: 432 ng/mL

###

protocol details: Pharmacokinetics of intraperitoneal or intravenous injection in CD1 mice
Assay type: in vivo
conditions: male, CD1, mouse, plasma, ip, 10 mg/kg, IP 10 mg/kg, CD1 mice plasma, 0.5 h; read-out: Conc. (ng/mL) Mouse 2
Label Met when concentration at 0.5 h is at or above 500 ng/mL; anything below gets Not met.

CN(c1cccc(CNc2nc(Nc3ccc(OCCCOCCC(=O)NCCOc4cccc5c4C(=O)N(C4CCC(=O)NC4=O)C5=O)cc3)ncc2C(F)(F)F)c1)S(C)(=O)=O (centres unmarked) [Compound 107] = Not met
Cc1ncsc1-c1ccc(CNC(=O)[C@@H]2C[C@@H](O)CN2C(=O)[C@@H](NC(=O)COCCOc2ccc(Nc3ncc(C(F)(F)F)c(NCc4cccc(N(C)S(C)(=O)=O)c4)n3)cc2)C(C)(C)C)cc1 [Compound 100] = Not met

Input line: Would you say Cc1ncsc1-c1ccc(CNC(=O)[C@@H]2C[C@@H](O)CN2C(=O)[C@@H](NC(=O)CCOCCOc2ccc(Nc3ncc(C(F)(F)F)c(NCc4cccc(N(C)S(C)(=O)=O)c4)n3)cc2)C(C)(C)C)cc1 [Compound 102] shows concentration at 0.5 h at minimum 500 ng/mL?
Output line: Met

Input line: Item: Cc1ncsc1-c1ccc(CNC(=O)[C@@H]2C[C@@H](O)CN2C(=O)[C@@H](NC(=O)CCOCCCOc2ccc(Nc3ncc(C(F)(F)F)c(NCc4cccc(N(C)S(C)(=O)=O)c4)n3)cc2)C(C)(C)C)cc1 [Compound 103]
Output line: Met

Input line: Item: Cc1ncsc1-c1ccc(CNC(=O)[C@@H]2C[C@@H](O)CN2C(=O)[C@@H](NC(=O)COCCCOc2ccc(Nc3ncc(C(F)(F)F)c(NCc4cccc(N(C)S(C)(=O)=O)c4)n3)cc2)C(C)(C)C)cc1 [Compound 101]
Output line: Met

###

protocol details: Pharmacokinetics of intraperitoneal or intravenous injection in CD1 mice
Format: in vivo
conditions: male, CD1, mouse, plasma, iv, 1 mg/kg, IV 1.0 mg/kg, CD1 mice plasma, 4 h; read-out: Mean
endpoint label: concentration at 4 h (ng/mL)
Could you give me the number in ng/mL? Just the number is fine.

Cc1ncsc1-c1ccc(CNC(=O)[C@@H]2C[C@@H](O)CN2C(=O)[C@@H](NC(=O)CCOCCCOc2ccc(Nc3ncc(C(F)(F)F)c(NCc4cccc(N(C)S(C)(=O)=O)c4)n3)cc2)C(C)(C)C)cc1 [Compound 103] = 12.3

Input line: Which concentration at 4 h value is on record for Cc1ncsc1-c1ccc(CNC(=O)[C@@H]2C[C@@H](O)CN2C(=O)[C@@H](NC(=O)COCCOc2ccc(Nc3ncc(C(F)(F)F)c(NCc4cccc(N(C)S(C)(=O)=O)c4)n3)cc2)C(C)(C)C)cc1 [Compound 100] ?
Output line: 2.69

###

protocol details: Pharmacokinetics of intraperitoneal or intravenous injection in CD1 mice
Format: in vivo
conditions: male, CD1, mouse, plasma, ip, 10 mg/kg, IP 10 mg/kg, CD1 mice plasma, 8 h; read-out: Conc. (ng/mL) Mouse 1
concentration at 8 h listing for selected compounds.
Could you give me the number in ng/mL? Just the number is fine.

Cc1ncsc1-c1ccc(CNC(=O)[C@@H]2C[C@@H](O)CN2C(=O)[C@@H](NC(=O)CCOCCCOc2ccc(Nc3ncc(C(F)(F)F)c(NCc4cccc(N(C)S(C)(=O)=O)c4)n3)cc2)C(C)(C)C)cc1 [Compound 103] = 321
Cc1ncsc1-c1ccc(CNC(=O)[C@@H]2C[C@@H](O)CN2C(=O)[C@@H](NC(=O)COCCOc2ccc(Nc3ncc(C(F)(F)F)c(NCc4cccc(N(C)S(C)(=O)=O)c4)n3)cc2)C(C)(C)C)cc1 [Compound 100] = 95.4
Cc1ncsc1-c1ccc(CNC(=O)[C@@H]2C[C@@H](O)CN2C(=O)[C@@H](NC(=O)CCOCCOc2ccc(Nc3ncc(C(F)(F)F)c(NCc4cccc(N(C)S(C)(=O)=O)c4)n3)cc2)C(C)(C)C)cc1 [Compound 102] = 36.4

# input for lookup
Input line: Which concentration at 8 h value is on record for Cc1ncsc1-c1ccc(CNC(=O)[C@@H]2C[C@@H](O)CN2C(=O)[C@@H](NC(=O)COCCCOc2ccc(Nc3ncc(C(F)(F)F)c(NCc4cccc(N(C)S(C)(=O)=O)c4)n3)cc2)C(C)(C)C)cc1 [Compound 101] ?
Output line: 24.1

###

protocol details: Pharmacokinetics of intraperitoneal or intravenous injection in CD1 mice
Assay type: in vivo
conditions: male, CD1, mouse, plasma, iv, 1 mg/kg, IV 1.0 mg/kg, CD1 mice plasma, 1 h; read-out: Mean
concentration at 1 h listing for selected molecules.
Could you give me the number in ng/mL? Just the number is fine.

Cc1ncsc1-c1ccc(CNC(=O)[C@@H]2C[C@@H](O)CN2C(=O)[C@@H](NC(=O)CCOCCCOc2ccc(Nc3ncc(C(F)(F)F)c(NCc4cccc(N(C)S(C)(=O)=O)c4)n3)cc2)C(C)(C)C)cc1 = 56.2
Cc1ncsc1-c1ccc(CNC(=O)[C@@H]2C[C@@H](O)CN2C(=O)[C@@H](NC(=O)COCCOc2ccc(Nc3ncc(C(F)(F)F)c(NCc4cccc(N(C)S(C)(=O)=O)c4)n3)cc2)C(C)(C)C)cc1 = 8.26
Cc1ncsc1-c1ccc(CNC(=O)[C@@H]2C[C@@H](O)CN2C(=O)[C@@H](NC(=O)CCOCCOc2ccc(Nc3ncc(C(F)(F)F)c(NCc4cccc(N(C)S(C)(=O)=O)c4)n3)cc2)C(C)(C)C)cc1 = 15.6

Input line: Which concentration at 1 h value is on record for `Cc1ncsc1-c1ccc(CNC(=O)[C@@H]2C[C@@H](O)CN2C(=O)[C@@H](NC(=O)COCCCOc2ccc(Nc3ncc(C(F)(F)F)c(NCc4cccc(N(C)S(C)(=O)=O)c4)n3)cc2)C(C)(C)C)cc1` ?
Output line: 9.9

Reference source: patent US20200038513A1
